Source of measurements: patent US10556922B2

# procedure-details: Solubility of crystalline HPC in organic solvents
# Format: physicochemical
# run-conditions: organic solvent or mixture; ethyl acetate, 25° C.; read-out: solubility in ethyl acetate
measured-parameter: solubility

IN: Data request, read-out solubility, for CCCCCC(=O)O[C@]1(C(C)=O)CC[C@H]2[C@@H]3CCC4=CC(=O)CC[C@]4(C)[C@H]3CC[C@@]21C [Form A, 17-α-hydroxyprogesterone caproate]
OUT: ~419 mg/mL

---

# procedure-details: Solubility of crystalline HPC in organic solvents
# Assay type: physicochemical
# run-conditions: organic solvent or mixture; ethanol, 25° C.; read-out: solubility in ethanol
measured-parameter: solubility

IN: Data request, read-out solubility, for CCCCCC(=O)O[C@]1(C(C)=O)CC[C@H]2[C@@H]3CCC4=CC(=O)CC[C@]4(C)[C@H]3CC[C@@]21C [Form A, 17-α-hydroxyprogesterone caproate]
OUT: ~118 mg/mL

---

# procedure-details: Solubility of crystalline HPC in organic solvents
# Type: physicochemical
# run-conditions: organic solvent or mixture; isopropanol, 25° C.; read-out: solubility in isopropanol
measured-parameter: solubility

IN: Data request, read-out solubility, for CCCCCC(=O)O[C@]1(C(C)=O)CC[C@H]2[C@@H]3CCC4=CC(=O)CC[C@]4(C)[C@H]3CC[C@@]21C [Form A, 17-α-hydroxyprogesterone caproate]
OUT: ~91 mg/mL
